Provide the reported T½ of each item.
- Subject of test: T1, Monomeric human CD48-mmH (human)
- T1 chain: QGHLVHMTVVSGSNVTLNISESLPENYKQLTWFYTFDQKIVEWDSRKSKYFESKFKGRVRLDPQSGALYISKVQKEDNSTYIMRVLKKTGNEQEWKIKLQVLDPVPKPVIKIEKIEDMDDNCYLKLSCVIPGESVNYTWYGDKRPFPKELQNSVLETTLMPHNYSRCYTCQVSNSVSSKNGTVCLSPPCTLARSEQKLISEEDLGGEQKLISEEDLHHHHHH
- Measurement description: SPR (Biacore), antibody captured by anti-Fc, CD48 in solution, 37 C
- Procedure: Measurements were conducted on a T100-2 BIACORE™ instrument (Biacore Life Sciences division of GE Healthcare, Piscataway, N.J.). […] The soluble CD48 was applied to the flow cell in separate injections at different concentrations, and kinetic association (kₐ) and dissociation (kd) rate constants were determined by fits to the kinetic binding data using Biacore software. […]
The figure you give is taken to be in min; do not add the unit.

## Input For the binder H4H1772P (antibody, human IgG4, V domains shown, Human IgG4 Fc (H4H)) VH: EVQLVESGGGLVQPGGSLRLSCAASGFTFSSYWMSWVRQAPGKGLEWVANIMRDGSEKYYVDSVKGRFTISRDNAKNSLYLQMNSLRGEDTAVYYCARERGFYTNYGNWFDPWGQGTLVTVSS VL: DIVMTQSPLSLTVTPGESASISCRSSQSLLHSYGYNSLDWYLQKPGQSPQFLIYLVSNRASGVPDRFSGSGSGTDFTLKISRVEAEDVGVYYCMQVLQTPYTFGQGTKLEIK , what T½ is on record?
## Output 11

## Input Another binder to look at: H2M1712N (antibody, mouse IgG2, V domains shown, Human variable domains, mouse IgG2 Fc (H2M)) VH: QIQLVQSGAEMKRPGTSVKVSCKASGYTFSSYGINWVRQAPGQGLEWMGWISAYNGDTNYAQKLQGRVTMTTDTSTTTAYMEVRSLRSDDTAVYYCARFLTGTKDLYYGMDVWGQGTTVTVSS VL: DIQMTQSPSSLSASVGDRVTITCQASQDISNFLNWYQQKPGKAPDLLINDASILETGVPSRFSGSGSGTDFTLTINSLQPEDIATYYCQQYDNLPLTFGGGTKVEIK
## Output 1

## Input Another binder to look at: H4H1775P (antibody, human IgG4, V domains shown, Human IgG4 Fc (H4H)) VH: QVQLVESGGGVVQPGRSLRLSCAASGFTFSNYGMHWVRQAPGKGLEWVAVIWYDESGKHYADSVKGRFTISRDNSQNTLYLQMTSLRAEDTAVYYCARDRWTYSHYFEYWGQGTLVTVSS VL: DIQMTQSPSSVSASVGDRVTITCRASQDISSWVAWYQQKPGKAPKLLIYAASSLQSGVPSRFSGSGSGTDFTLTISSLQPEDFATYYCQQANSFPRTFGQGTKVEIK
## Output 122
